Test Details: qHTS assay to identify small molecule antagonists of the progesterone receptor (PR) signaling pathway - cell viability counter screen (AID 1346798); further: nearly all actives have a fitted effect of over 50% in size
Particulars: PR-UAS-bla HEK293T viability, CellTiter-Glo luminescence, 16 h; series mostly up to 92.4 µM
Results filed as inconclusive are left out. Active and inactive are the calls of the source. The call rests on the fitted dose curve; in most records, active means well fitted cell-killing curve with a large enough effect in the repeat runs; inconclusive means weak or mixed curves, or effect the other way; inactive means no such curve, though single readings can be large or run the other way.
Your answer must be one of the following: 1 = active, -1 = inactive

Could you check what this test reported for `NS(=O)(=O)C(F)(F)C(F)(F)C(F)(F)C(F)(F)C(F)(F)C(F)(F)C(F)(F)C(F)(F)F` ? 1

Request: `Cc1ccccc1CCl` -1

Another: Cc1c(F)c(F)c(COC(=O)C2C(/C=C(\Cl)C(F)(F)F)C2(C)C)c(F)c1F (centres undefined) -1

// next record `Clc1cccc(SC2CCNCC2)n1` -1

###

Test Details: qHTS assay for identifying genotoxic compounds that show differential cytotoxicity against isogenic chicken DT40 cell lines with known DNA damage response pathways - Rev3 mutant cell line (AID 743014); further: nearly all actives have a fitted effect of over 55% in size
Particulars: chicken DT40 Rev3-/- viability, CellTiter-Glo, 40 h; series mostly up to 68.4 µM
Source text: National Center for Advancing Translational Sciences [NCATS] NIH Chemical Genomics Center [NCGC] U.S. Environmental Protection Agency [EPA] National Institutes of Environmental Health Sciences [NIEHS] National Toxicology Program [NTP] U.S. Food and Drug Administration [FDA] DNA repair pathways play a critical role in cellular homeostasis by repairing DNA damage induced by endogenous processes and xenobiotics. […]
Records with an inconclusive call do not appear. Calls of active or inactive are those of the source. Calls follow the shape of the dose curve; as a rule, active = well fitted cell-killing curve with a large enough effect in the repeat runs; inconclusive = weak or mixed curves, or effect the other way; inactive = no such curve, though single readings can be large or run the other way.
Outcome (select one): yes (active), no (inactive)

Test call, this compound: `CCCN(CCC)c1c([N+](=O)[O-])cc(S(C)(=O)=O)cc1[N+](=O)[O-]` no

What about this compound? `Cc1ccccc1C(=O)Nc1cccc(OC(C)C)c1` yes

Could you do the same for `C=CCOC(C)=O` , please? no

Another compound to look at: CN1[C@@H]2CC[C@H]1CC(OC(=O)c1cc(Cl)cc(Cl)c1)C2 (stereo partly drawn) yes

Proceed to `COC(C)(C)CCC[C@H](C)C/C=C/C(C)=C/C(=O)OC(C)C` yes

CCC(COC(=O)c1cc(OC)c(OC)c(OC)c1)(c1ccccc1)N(C)C (stereo not drawn) ? yes

What do we get for `O=Cc1ccc2c(c1)OCO2` ? no

O=C(NC(=O)c1c(F)cccc1F)Nc1ccc(OC(F)(F)C(F)OC(F)(F)F)c(Cl)c1 (stereo not drawn) ? yes

Please do the same for CNC(C)Cc1ccccc1OC (stereo not drawn) as well. no

Subsequent entry: `Nc1ccc([N+](=O)[O-])cc1[N+](=O)[O-]` yes

Same for `COc1ccc(-c2ccccc2)cc1NNC(=O)OC(C)C` yes

Follow-up item: `Clc1cccc2ccccc12` no

Thanks! And `Cl/C=C\Cl` ? no

How about this compound: `Clc1cccc(SC2CCNCC2)n1` no

Cool, now `CC(C)(OO)c1ccccc1` yes

Next compound: `CN1C[C@H](CNC(=O)OCc2ccccc2)C[C@@H]2c3cccc4c3c(cn4C)C[C@H]21` yes

One more compound: `CCOC(=O)[C@]1(c2ccccc2)Oc2ccccc2[C@@H]1N` yes

Can you handle CNP(=O)(OC)Oc1ccc(C(C)(C)C)cc1Cl (stereo not drawn) next? yes

Values were extracted from PubChem BioAssay (Tox21).
